Parameter: IC50. Scope: all listed entries.
system: p-p70 S6 Kinase (Thr389) in MCF-7 cells; assay: AlphaLISA Ultra pS6K1 assay; assay type: cell-based; details: Homo sapiens, 1.5 h; MCF7 cells, 90 min

INSERT INTO measurements (molecule, result) VALUES
  ('COCCOCCOC1C[C@@H]2CC[C@@H](C)[C@@](O)(O2)C(=O)C(=O)N2CCCC[C@H]2C(=O)O[C@H]([C@H](C)C[C@@H]2CCC(OC3COC3)[C@H](OC)C2)CC(=O)[C@H](C)/C=C(\C)[C@@H](O)[C@@H](OC)C(=O)[C@H](C)C[C@H](C)/C=C/C=C/C=C/1C (some centres unmarked) [I-7]', '1 to 10 nM');

Challenge: API: value(readout= IC50, system= p-p70 S6 Kinase (Thr389) in MCF-7 cells, query= COCCS(=O)(=O)CCO[C@@H]1C[C@@H]2CC[C@@H](C)[C@@](O)(O2)C(=O)C(=O)N2CCCC[C@H]2C(=O)O[C@H]([C@H](C)C[C@@H]2CC[C@@H](OC)[C@H](OC)C2)CC(=O)[C@H](C)/C=C(\C)[C@@H](OC)[C@@H](OC)C(=O)[C@H](C)C[C@H](C)/C=C/C=C/C=C/1C [I-42] )
Response given: 10 to 100 nM

Sourced from patent US20220267352A1
